target_or_test_system: Alpha-1B adrenergic receptor (Homo sapiens)
Sequence (P35368 whole entry): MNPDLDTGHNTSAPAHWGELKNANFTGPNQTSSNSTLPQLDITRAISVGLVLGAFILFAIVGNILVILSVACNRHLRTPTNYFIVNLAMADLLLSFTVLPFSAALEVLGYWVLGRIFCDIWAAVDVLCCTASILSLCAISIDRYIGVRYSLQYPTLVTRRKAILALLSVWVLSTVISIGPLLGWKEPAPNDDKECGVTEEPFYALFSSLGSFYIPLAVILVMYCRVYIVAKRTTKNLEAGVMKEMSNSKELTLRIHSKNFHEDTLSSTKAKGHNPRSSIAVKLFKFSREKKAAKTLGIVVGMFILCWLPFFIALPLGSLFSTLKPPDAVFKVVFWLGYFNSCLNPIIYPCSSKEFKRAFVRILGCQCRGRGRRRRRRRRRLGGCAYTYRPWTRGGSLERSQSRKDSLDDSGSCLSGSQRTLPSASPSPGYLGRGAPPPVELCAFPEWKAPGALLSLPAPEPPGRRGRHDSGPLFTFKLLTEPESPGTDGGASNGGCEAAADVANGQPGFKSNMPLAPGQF
pKi: −log10 of the molar value.
property: pKi

* O=CN1CCC(c2ccc(-c3cc(C(=O)O)cc4cc(-c5ccc(C(F)(F)F)cc5)ccc34)cc2)CC1 | 5.58
